// provenance: patent US20250296938A1

Tested system: UniProtKB P63000
Method description: Ras GTP binding domain inhibition assay (Cy3-GTP/Cy5-GTP competition)
Experimental parameters: without SOS, read-out: Rac-1: % inh.
Each record here notes measured inhibition at 20 µM.

Molecule: Cc1cnc(-c2nc(O)c3scc(-c4ccccn4)c3n2)n1C [drawing 943]
Parameter measured: inhibition at 20 µM
Experimental value: 1 to 25%

Recorded inhibition at 20 µM for COCC1CN(c2nc(-c3nccn3C)nc3sc(-c4cccc(OC)c4F)c(-c4ccc(OC)cc4)c23)C1 [drawing 940] , please?
0%

Follow-up entry: COC1CCN(c2nc(-c3nccn3C)nc3sc(-c4ccnn4C)c(-c4ccccc4)c23)C1 (stereo not shown) [drawing 972]
26 to 50%

Follow-up entry: Cn1ccnc1-c1nc(O)c(O)c(C(=O)N2CCCCC2)n1 [drawing 961]
51 to 75%

Follow-up entry: COCC(C)Nc1nc(-c2nccn2C)nc2sc(-c3ccccc3Cl)c(-c3cscn3)c12 (stereo not shown) [drawing 989]
26 to 50%
